Assign interaction score to each entry below.
experimentalTarget: T1, 4H3298-bN
T1 chain: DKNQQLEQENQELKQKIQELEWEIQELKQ
testProtocol: two-hybrid library CCNG1;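 also: natural log of median RNA to DNA barcode read ratio; higher means stronger binding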
Reply with just the number.

Problem: Read off the recorded interaction score for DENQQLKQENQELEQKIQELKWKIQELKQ [4H1710-bN]
Solution: 0.498

Problem: Determine from records and report interaction score for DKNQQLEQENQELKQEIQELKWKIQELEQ [4H3277-bN]
Solution: -0.281

Problem: Tell me interaction score reported for DKNQQLEQEIQELKQENQELKWEIQELKQ [4H3162-bN]
Solution: -0.102

Problem: // fetch interaction score given entry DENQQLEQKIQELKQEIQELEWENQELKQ [4H1348-bN]
Solution: 0.08

The values you see were collected from paper PMC10397247.
